Assay: Pharmacokinetics test (digestive tract absorption and metabolic characteristics) in rats
Assay type: in vivo
Settings: 10 mg/kg, Iv, final phase half-life
reported_endpoint: T1/2 (λ) (h)
Give the quantity in h, number only.

Known T1/2 (λ) results, listed for orientation:
COc1cccc2cc(C(=O)N[C@H](C(=O)N[C@@H](Cc3ccccc3)[C@H](O)C(=O)N3CSC(C)(C)[C@H]3C(=O)NCc3ccccc3C)C(C)C)oc12 1.23
COC(=O)N[C@H](C(=O)N[C@@H](Cc1ccccc1)[C@H](O)C(=O)N1CSC(C)(C)[C@H]1C(=O)NCc1ccccc1C)C(C)C 1.45
CC(C)[C@H](NC(=O)COc1cccc(N(C)C)c1)C(=O)N[C@@H](Cc1ccccc1)[C@H](O)C(=O)N1CSC(C)(C)[C@H]1C(=O)NC(C)(C)C 1.05

Note: attention shifts to another entry.
Exam item: Fill in the blank: the reported T1/2 (λ) of CC[C@H](NC(=O)COc1cccc(N(C)C)c1)C(=O)N[C@@H](Cc1ccccc1)[C@H](O)C(=O)N1CSC(C)(C)[C@H]1C(=O)NC(C)(C)C is ____.
Marked response: 1.83
